tested on: Pseudomonas aeruginosa ATCC 10145; assay: MIC, standard dilution test, Pseudomonas aeruginosa ATCC 10145; type: cell-based; settings: inoculum about 10^4 CFU/ml, 18-24 h at 37° C.
measurement name: Minimal inhibitory concentration (MIC)
Output: the number by itself.

1. COC(=O)C1NC(=O)C2NC(=O)C(NC(=O)C3NC(=O)C4NC(=O)C(Cc5ccc(c(Cl)c5)Oc5cc3cc(c5OC(CCO)C(=O)NCCN)Oc3ccc(cc3Cl)C2O)NC(=O)C(N)c2ccc(O)c(c2)Oc2cc(O)cc4c2)c2ccc(O)c(c2)-c2c(O)cc(O)cc21.Cl (stereo not shown)    64
2. CNC(=O)C1NC(=O)C2NC(=O)C(NC(=O)C3NC(=O)C4NC(=O)C(Cc5ccc(c(Cl)c5)Oc5cc3cc(c5OCCCCN)Oc3ccc(cc3Cl)C2O)NC(=O)C(N)c2ccc(O)c(c2)Oc2cc(O)cc4c2)c2ccc(O)c(c2)-c2c(O)cc(O)cc21 (stereo not shown)    64

Using the record for NCCNCCOc1c2cc3cc1Oc1ccc(cc1Cl)C(O)C1NC(=O)C(NC(=O)C3NC(=O)C3NC(=O)C(Cc4ccc(c(Cl)c4)O2)NC(=O)C(N)c2ccc(O)c(c2)Oc2cc(O)cc3c2)c2ccc(O)c(c2)-c2c(O)cc(O)cc2C(C(=O)NCCN)NC1=O (stereo not shown) , state its measured Minimal inhibitory concentration (MIC).
64
